assay: molar heat capacity at constant pressure; conditions: 303.15 K; 101.33 kPa; Crystal
valueKind: molar heat capacity at constant pressure (J/K/mol)

Reference set (4 entries):
molecule: Cc1cc(=O)n(C)c(=O)[nH]1
molar heat capacity at constant pressure [J/K/mol]: 193.1
//
molecule: Cn1c2c(c(=O)n(C)c1=O)CCCCC2
molar heat capacity at constant pressure [J/K/mol]: 321.6
//
molecule: Oc1ncc(Cl)c(O)n1
molar heat capacity at constant pressure [J/K/mol]: 137.9
//
molecule: CCCc1cc(=O)n(C)c(=O)n1C
molar heat capacity at constant pressure [J/K/mol]: 288.8

(P) Cc1c(C)n(C)c(=O)n(C)c1=O
(Q) O=c1[nH]cc(I)c(=O)[nH]1
(R) CCCCc1cn(C)c(=O)n(C)c1=O
Your job: order these 3 records by molar heat capacity at constant pressure, ascending. Dear reader, please state the labels in the requested order. Q, P, R

(a) Cc1c[nH]c(=O)[nH]c1=O
(b) Cn1c2c(c(=O)n(C)c1=O)CCC2
# query: argmin of molar heat capacity at constant pressure over a and b Answer by stating the label of the chosen item. a

(1) Cc1cc(=O)[nH]c(=O)n1C
(2) CCCc1cn(C)c(=O)n(C)c1=O
(3) O=c1cc[nH]c(=O)[nH]1
List items by molar heat capacity at constant pressure in falling order. I'd appreciate it if you listed the labels in the requested order. 2, 1, 3
(2: 302.7 J/K/mol, 1: 194.3 J/K/mol, 3: 135.5 J/K/mol)

----------
assay: molar heat capacity at constant pressure; conditions: 333.15 K; 101.33 kPa; Crystal
valueKind: molar heat capacity at constant pressure (J/K/mol)

Illustrative cases are given below, each with its answer.
molecule: O=c1[nH]cc(Br)c(=O)[nH]1
molar heat capacity at constant pressure / J/K/mol: 162

molecule: Cn1c(=O)cc[nH]c1=O
molar heat capacity at constant pressure / J/K/mol: 239.2

molecule: Cn1c2c(c(=O)n(C)c1=O)CCCCC2
molar heat capacity at constant pressure / J/K/mol: 358.4

molecule: O=c1cc[nH]c(=O)[nH]1
molar heat capacity at constant pressure / J/K/mol: 154.3

molecule: Cn1ccc(=O)n(C)c1=O
molar heat capacity at constant pressure / J/K/mol: 201

molecule: Cc1cc(O)nc(O)n1 [2,4-dihydroxy-6-methylpyrimidine]
molar heat capacity at constant pressure / J/K/mol: 187.3

molecule: O=[N+]([O-])c1cnc(O)nc1O
molar heat capacity at constant pressure / J/K/mol: 173.1

molecule: CCc1cn(C)c(=O)n(C)c1=O
molar heat capacity at constant pressure / J/K/mol: 275.2

(a) Cc1cc(=O)n(C)c(=O)n1C
(b) O=c1cc(Cl)[nH]c(=O)[nH]1
Lowest molar heat capacity at constant pressure? choose a or b Mark your answer with the label of the selected entry. b
(b: 145.1 J/K/mol, a: 229 J/K/mol)

----------
assay: molar heat capacity at constant pressure; details: 313.15 K; 101.33 kPa; Crystal
valueKind: molar heat capacity at constant pressure (J/K/mol)

(a) Cc1cc(=O)n(C)c(=O)n1C
(b) Oc1ncc(Cl)c(O)n1
(c) Cn1c2c(c(=O)n(C)c1=O)CCCCC2
Hey, can you sort those compounds up there by molar heat capacity at constant pressure, smallest first? Answer format: the labels, ordered as requested. b, a, c

(A) Cc1cc(O)nc(O)n1 [2,4-dihydroxy-6-methylpyrimidine]
(B) CCc1cn(C)c(=O)n(C)c1=O
Thinking about recorded molar heat capacity at constant pressure values, which is higher, A or B ? Which one? Tell me its label. B

(a) O=c1[nH]cc(F)c(=O)[nH]1
(b) Cc1c(C)n(C)c(=O)n(C)c1=O
Which has the higher molar heat capacity at constant pressure, a or b ? Please indicate the selected item by its label. b

(1) CCCCc1cc(=O)n(C)c(=O)n1C
(2) Cc1cn(C)c(=O)[nH]c1=O
Between item 1 and item 2 , which reported molar heat capacity at constant pressure is smaller? To answer, give the label that identifies your chosen option. 2

----------
assay: molar heat capacity at constant pressure; conditions: 318.15 K; 101.33 kPa; Crystal
valueKind: molar heat capacity at constant pressure (J/K/mol)

molecule: Cn1c(=O)cc[nH]c1=O
molar heat capacity at constant pressure (J/K/mol): 206.1

(I) O=c1[nH]cc(I)c(=O)[nH]1
(II) CCCc1cc(=O)n(C)c(=O)n1C
Which has the smaller recorded molar heat capacity at constant pressure, I or II ? Let me know the label of the one you choose. I

(P) O=c1cc[nH]c(=O)[nH]1
(Q) Cc1cc(=O)n(C)c(=O)n1C
(R) Cn1c2c(c(=O)n(C)c1=O)CCCCC2
I would appreciate it if you could sort these 3 molecules by molar heat capacity at constant pressure, starting from the smallest number. Please list each label once, in the requested order. P, Q, R

(A) Cn1ccc(=O)n(C)c1=O
(B) CCCc1cn(C)c(=O)n(C)c1=O
Which has the higher molar heat capacity at constant pressure, A or B ? API: response body contains the label of the selected item. B
(B: 306.2 J/K/mol, A: 193.8 J/K/mol)

(a) Cc1cn(C)c(=O)[nH]c1=O
(b) Cn1c2c(c(=O)n(C)c1=O)CCCC2 [1,3-dimethyl-5,6,7,8-tetrahydroquinazoline-2,4(1H,3H)-dione]
Lab note: check whether a or b shows the higher recorded molar heat capacity at constant pressure. // respond with label for picked entry b

----------
experiment: molar heat capacity at constant pressure; conditions: 323.15 K; 101.33 kPa; Crystal
valueKind: molar heat capacity at constant pressure (J/K/mol)

Recorded results for 3 compounds are shown here.
compound: Cc1c(C)n(C)c(=O)n(C)c1=O [2,4(1H,3H)-pyrimidinedione, 1,3,5,6-tetramethyl-]
measurement: 266.7
//
compound: O=c1[nH]cc(Br)c(=O)[nH]1 [5-bromouracil]
measurement: 157.1
//
compound: O=c1[nH]cc(C(F)(F)F)c(=O)[nH]1 [5-(trifluoromethyl)uracil]
measurement: 195.9

(a) Oc1ncc(Cl)c(O)n1 [5-chloro-2,4-pyrimidinedione]
(b) Cn1c(=O)cc[nH]c1=O [uracil, 3-methyl-]
Please indicate which item has the smaller measured molar heat capacity at constant pressure: a versus b Refer to your chosen entry by its label in the reply. a
(a: 147.2 J/K/mol, b: 214.3 J/K/mol)

----------
assay: molar heat capacity at constant pressure; conditions: 328.15 K; 101.33 kPa; Crystal
valueKind: molar heat capacity at constant pressure (J/K/mol)

Example results:
molecule: O=c1[nH]cc(F)c(=O)[nH]1
molar heat capacity at constant pressure (J/K/mol): 145.5
//
molecule: Cc1cn(C)c(=O)[nH]c1=O
molar heat capacity at constant pressure (J/K/mol): 199.2
//
molecule: Cc1cc(=O)n(C)c(=O)[nH]1
molar heat capacity at constant pressure (J/K/mol): 202.4
//
molecule: Cc1cc(=O)n(C)c(=O)n1C
molar heat capacity at constant pressure (J/K/mol): 228.3
//
molecule: Cn1c(=O)cc[nH]c1=O
molar heat capacity at constant pressure (J/K/mol): 226.1
//
molecule: O=[N+]([O-])c1cnc(O)nc1O
molar heat capacity at constant pressure (J/K/mol): 173
//
molecule: Cc1cc(O)nc(O)n1 [2,4-dihydroxy-6-methylpyrimidine]
molar heat capacity at constant pressure (J/K/mol): 183
//
molecule: Cc1c[nH]c(=O)[nH]c1=O
molar heat capacity at constant pressure (J/K/mol): 195.2

(I) Cc1nc(O)nc(O)c1C [2,4-dihydroxy-5,6-dimethylpyrimidine]
(II) Oc1ncc(Cl)c(O)n1
From the recorded data, which exceeds the other in molar heat capacity at constant pressure: I or II ? Mark your answer with the label of the selected entry. I
(I: 219.1 J/K/mol, II: 151.2 J/K/mol)

----------
experiment: molar heat capacity at constant pressure; conditions: 328.15 K; 101.33 kPa; Crystal
valueKind: molar heat capacity at constant pressure (J/K/mol)

Worked examples, 8 molecules total:
smi: Cn1c2c(c(=O)n(C)c1=O)CCCCC2
measurement: 353.3
--
smi: O=c1[nH]cc(I)c(=O)[nH]1
measurement: 168.6
--
smi: O=c1[nH]cc(C(F)(F)F)c(=O)[nH]1
measurement: 198.2
--
smi: O=c1cc(Cl)[nH]c(=O)[nH]1
measurement: 144.9
--
smi: CCc1cn(C)c(=O)n(C)c1=O
measurement: 270.7
--
smi: O=c1[nH]cc(Br)c(=O)[nH]1
measurement: 157.9
--
smi: Cc1c(C)n(C)c(=O)n(C)c1=O
measurement: 271.2
--
smi: Cn1ccc(=O)[nH]c1=O
measurement: 223

(1) Cc1cc(=O)[nH]c(=O)n1C
(2) O=c1cc[nH]c(=O)[nH]1
Pick one: 1 or 2 . Which one has the lower reported molar heat capacity at constant pressure? Lab log: write the label of the selected item as the result. 2
(2: 151.8 J/K/mol, 1: 217.9 J/K/mol)

Each recorded value in this set is attributed to the NIST ThermoML archive (doi:10.1021/je060257y).
